Items are presented alongside their recorded growth.
# System: SW-620 colon
# ASSAY NOTES: NCI-60 one-dose screen, 48 h (100 = growth as untreated, 0 = no growth, -100 = all killed)
# REPORTED CONDITIONS: 10 µM unless noted
About 83,000 compounds went through this panel and 20% of them were active in at least one assay; those are over-represented in the sample as a whole.
Value expressed in %; do not type the unit.

Solved cases (3 shown):
COMPOUND	PARAMETER	UNIT OF MEASUREMENT	QUANTITATIVE READOUT
Cc1ccc(-c2nc(N3CCN(CC(=O)Nc4ccc(Cl)c(C(F)(F)F)c4)CC3)c3ccccc3n2)cc1	growth	%	91.7
Cc1nc(NC(=O)COc2ccc(/C=C3\Cc4ccc(Cl)cc4C3=O)cc2)sc1C	growth	%	107
O=c1[nH]c2c(ccc3cnccc32)c2c1CCC2	growth	%	-11.9

Q: Item under review: O=C1NC(=O)C(Cn2cnc3ccccc32)N1 (stereo not given) . Reported growth?
Ans: 99.3

Q: Given COC(=O)Nc1ccc(-c2nc(-c3cccc(OC)c3)c(-c3ccnc(Br)c3)[nH]2)cc1 , state its recorded growth.
Ans: 74.5

Q: Need growth, item COc1ccc(C(=O)/C=C/c2sc(Cl)nc2Cl)cc1
Ans: 18.6

Q: Fill in: growth of C[N+]1=C(/C=C/c2ccc(O)c3ncccc23)C(C)(C)c2ccccc21 is ___
Ans: 89

Q: Quick one: growth for N#CC1=C(N)Oc2c(sc3c(Br)cccc23)C1c1ccc([N+](=O)[O-])cc1 (stereo not given) ?
Ans: 18.1

Q: Quick one: growth of CCOC(=O)Cn1c(=O)c2c(c3ccccc3n2C)n2nnc(-c3ccccc3)c12 ?
Ans: 109

Q: What value of growth has been reported for the following compound? N/C(=N\c1nc2ccccc2s1)NC(=O)Nc1cccc2ccccc12
Ans: 19.7

---

# System: MCF7 breast
# ASSAY NOTES: NCI-60 one-dose screen, 48 h (100 = growth as untreated, 0 = no growth, -100 = all killed)
# REPORTED CONDITIONS: 10 µM unless noted
The panel holds about 83,000 compounds, 20% with a hit somewhere; the sample as a whole holds those more often.
PARAMETER: growth (%)
Answer format: numeric, % implied, no suffix.

// worked examples, growth included
COMPOUND	PARAMETER	UNIT OF MEASUREMENT	QUANTITATIVE READOUT
O=c1c2cc(F)ccc2sc2c(NCCCNCCO)nc3ccccc3c12	growth	%	-51.2
CC(C)C(=O)Nc1ccc(-c2nc(-c3cccc(OCCN4CCOCC4)c3)c(-c3ccnc(Br)c3)[nH]2)cc1	growth	%	15.9
COc1cccc(-c2nn(-c3ccccc3)cc2-c2ccnc(N3CCOCC3)c2)c1	growth	%	87
Cc1nc2ccccc2c(/C=C/c2ccc(Cl)cc2)c1C(=O)/C=C/c1cccs1	growth	%	41.9
COc1ccc(-c2conc2-c2ccccc2)cc1	growth	%	16
O=c1c2cc(F)ccc2sc2c(N3CCCCC3)nc3ccccc3c12	growth	%	95.8
CNCCCNc1nc2ccccc2c2c(=O)c3cc(OC)ccc3sc12	growth	%	59.4
Cc1c(C(=O)NCCN2CCOCC2)cn2ncnc(Oc3ccc(NC(=O)Nc4ccc(Cl)c(C(F)(F)F)c4)cc3)c12	growth	%	7.07

Q: Requested read-out growth, target or system MCF7 breast, entry COc1cc(C(=O)N2N=C(c3ccc(S(C)(=O)=O)cc3)CC2c2ccco2)cc(OC)c1OC (stereo not given)
Ans: 37

Q: For MCF7 breast, provide growth of NCCCNc1nc2ccc(Cl)cc2c2c(=O)c3cc(F)ccc3sc12 please.
Ans: 47.2

---

Quick reference for growth among some compounds
# System: U251 CNS
# ASSAY NOTES: NCI-60 one-dose screen, 48 h (100 = growth as untreated, 0 = no growth, -100 = all killed)
# REPORTED CONDITIONS: 10 µM unless noted
Compounds without any hit were thinned out: in the full panel of roughly 83,000, 20% have a hit.
Report as a plain number; the unit % is understood.

COMPOUND	UNIT OF MEASUREMENT	growth
COc1cc(C2CC(c3ccc(N(C)C)cc3)=NN2C(C)=O)cc(OC)c1OC (stereo not given)	%	29.3
COc1cccc(-c2nc(-c3ccc(NC(=O)C(C)C)cc3)[nH]c2-c2ccnc(Br)c2)c1	%	32
Cc1nc(/N=C(\N)NC(=O)Nc2cccc(Cl)c2)sc1C	%	83.5
O=C(COc1ccc(/C=C2\Cc3ccc(Cl)cc3C2=O)cc1)Nc1nc2ccccc2s1	%	97.8

Q: Quick check: growth of CC1(C)C2CC1C1(/C=N/NC(N)=S)C(C2)C(C#N)(C#N)C1(C#N)C#N (stereo not given) ?
Ans: 82.1

---

# Test system: SF-295 CNS
# ASSAY NOTES: NCI-60 one-dose screen, 48 h
# REPORTED CONDITIONS: 10 µM unless noted
This is part of a sample that, as a whole, favours compounds with a hit. Of some 83,000 tested, about 20% had one in any assay. The source made the active and inactive calls. Rule for the calls: active = growth percent below 10; inactive = the rest.
Select the matching outcome among active, inactive

Below are worked cases with known answers.
RECORD SMILES	ANSWER LABEL
O=C(CSc1nc2ccccc2[nH]1)Nc1cccc(Cl)c1	inactive
CC(=O)O.CN1[CH-]N(Cc2ccc(C#N)cc2)c2ccccc21.[Ag+]	inactive
COc1ccc(-c2nc3sc(-c4ccccc4)cn3n2)cc1	inactive
COc1ccc(/C=C(\C#N)n2nnc3c(F)cccc32)cc1	active
NS(=O)(=O)c1ccc(-n2nc(-c3ccc(Cl)cc3)c3ccccc3c2=O)cc1	inactive

Lab note: next molecule to report on.
Q: Give the logged outcome of this assay for the following molecule: COc1ccc(C(=S)N2CCN(c3cccc(C)c3)CC2)cc1OC
Ans: inactive

---

# System: EKVX NSCLC
# ASSAY NOTES: NCI-60 one-dose screen, 48 h (100 = growth as untreated, 0 = no growth, -100 = all killed)
# REPORTED CONDITIONS: 10 µM unless noted
About 83,000 compounds went through this panel and 20% of them were active in at least one assay; those are over-represented in the sample as a whole.
Lab note - cut at 60% for growth: Satisfied if strictly below, Not satisfied if not.

COMPOUND	ANSWER LABEL
COc1cc2cc(Oc3ccc(NC(=O)Nc4cc(C(F)(F)F)cc(C(F)(F)F)c4)cc3)c(C)nc2cc1OCCN1CCOCC1	Satisfied

Q: growth strictly < 60% for this compound? Oc1ccc(Cl)cc1Cc1cc(Cl)cc(Cl)c1O
Ans: Satisfied

Q: growth under 60%? Item: O=C(Nc1ccc(F)cc1F)c1cc(F)ccc1O
Ans: Not satisfied

Q: Lab note: growth threshold 60%. Does this compound come in strictly under it? CN1CCN(c2ccc(-c3cnc4c(-c5csc6ccccc56)cnn4c3)cc2)CC1
Ans: Satisfied

Q: Lab note: growth threshold 60%. Does this compound come in strictly under it? CCCCC[C@H](O)C/C=C1/C(=O)C=C[C@@H]1C/C=C\CCCC(=O)OC
Ans: Not satisfied

Q: Is it true that growth reported for Nc1nc(Cl)cc(=O)n1Cc1ccccc1 is less than 60%?
Ans: Not satisfied

---

# System: UO-31 renal
# ASSAY NOTES: NCI-60 one-dose screen, 48 h
# REPORTED CONDITIONS: 10 µM unless noted
About 83,000 compounds went through this panel and 20% of them were active in at least one assay; those are over-represented in the sample as a whole. Activity calls are given as the source filed them. Rule for the calls: active = growth percent below 10; inactive = the rest.
Return exactly one item of Yes (active), No (inactive)

Q: Assay outcome for COc1ccc(CNC(=O)[C@H](O)[C@@H](N)Cc2ccccc2)cc1 : what was it?
Ans: No

Q: Look up the recorded call for c1ccc(Nc2cc(-c3cccnc3)[nH]n2)cc1 in this test.
Ans: No

Q: // outcome(item) with item = CCC12CCC[N+]3([O-])CCC4(C(=Nc5ccccc54)C(O)(C(=O)OC)C1)C23 (stereo not drawn)
Ans: No

Q: Just curious, what result did O=C(CCOCCNC(=O)COc1ccc2c(c1)OCC(c1ccc(F)cc1)C2=O)NCCCC(O)(P(=O)(O)O)P(=O)(O)O (stereo not drawn) get here?
Ans: No

Q: I would be grateful if you could indicate the recorded call for CCOC(=O)c1cn2ncnc(Oc3ccc(NC(=O)NCCN(CC)CC)c(Cl)c3)c2c1C .
Ans: No

Q: State the result this test recorded for Cc1ncc(C(=O)Nc2ccc(CN3CCN(C)CC3)c(C(F)(F)F)c2)cc1C#Cc1ccc(N)nc1 .
Ans: Yes

Q: Test call for this compound, please: Cc1ccc(-c2nc(N3CCN(CC(=O)Nc4ccc(Cl)cc4)CC3)c3ccccc3n2)cc1
Ans: No

Q: What is the recorded call for this compound in the test? O=C1NC(=O)C(c2ccccc2)(c2ccccc2)N1Cc1cn(-c2c3ccccc3nc3ccccc23)nn1
Ans: No
